These data points were gathered from patent US20250326794A1.

Item-by-item account of Lipid Concentration-induced 50% Peptide Binding, POPC Vesicle
methodSummary: Tryptophan fluorescent binding assay, POPC vesicles
testParameters: 50 μM peptide, PBS pH 7.4, lipid per peptide
Experimental: In brief, 50 μM peptides were fixed and incubated with titrated POPC vesicles (black) or 3POPC/1POPG vesicles (grey) at concentrations of 0, 12.5, 25, 50, 100, 250, 500, 1000, 2500, and 5000 μM in phosphate buffered saline (1×, pH 7.4). The lipid concentration that causes 50% peptide binding was determined using a tryptophan fluorescent binding assay and the values are shown as lipid per peptide. […]
State the answer as a number, implicitly in L/P.

INSERT INTO results (smi, val) VALUES
  ('CC(C)C[C@H](NC(=O)CN)C(=O)N[C@@H](CC(C)C)C(=O)N[C@@H](CCC(=O)O)C(=O)N[C@@H](CC(C)C)C(=O)N[C@@H](CC(C)C)C(=O)N[C@@H](CCC(=O)O)C(=O)N[C@@H](CC(C)C)C(=O)N[C@@H](CC(C)C)C(=O)N[C@@H](CC(C)C)C(=O)N[C@@H](CCCCN)C(=O)N[C@@H](C)C(=O)N[C@@H](C)C(=O)NCC(=O)N[C@@H](Cc1c[nH]c2ccccc12)C(N)=O', 0.48);

Consider now this further compound.
Prompt: Look at this compound and give its reported Lipid Concentration-induced 50% Peptide Binding, POPC Vesicle. CC(C)C[C@H](NC(=O)CN)C(=O)N[C@@H](CC(C)C)C(=O)N[C@@H](Cc1c[nH]cn1)C(=O)N[C@@H](CC(C)C)C(=O)N[C@@H](CC(C)C)C(=O)N[C@@H](CCC(=O)O)C(=O)N[C@@H](CC(C)C)C(=O)N[C@@H](CC(C)C)C(=O)N[C@@H](CC(C)C)C(=O)N[C@@H](CCC(=O)O)C(=O)N[C@@H](C)C(=O)N[C@@H](C)C(=O)NCC(=O)N[C@@H](Cc1c[nH]c2ccccc12)C(N)=O
Completion: 0.58

---

methodSummary: ANTS/DPX liposome leakage assay, POPC vesicles
Assay type: biochemical
testParameters: 0.5 mM vesicles, pH 4.8, lipid per peptide
Each entry below lists one item and its recorded Peptide Concentration-induced 50% ANTS/DPX leakage at pH 4.8, POPC Vesicle value.
Hi! Could you send only the number? It should be in L/P, unit omitted.

INSERT INTO measurements (smi, val) VALUES
  ('CC(C)C[C@H](NC(=O)CN)C(=O)N[C@@H](CC(C)C)C(=O)N[C@@H](CCCCN)C(=O)N[C@@H](CC(C)C)C(=O)N[C@@H](CC(C)C)C(=O)N[C@@H](Cc1c[nH]cn1)C(=O)N[C@@H](CC(C)C)C(=O)N[C@@H](CC(C)C)C(=O)N[C@@H](CC(C)C)C(=O)N[C@@H](Cc1c[nH]cn1)C(=O)N[C@@H](C)C(=O)N[C@@H](C)C(=O)NCC(=O)N[C@@H](Cc1c[nH]c2ccccc12)C(N)=O', 227);

Please look at the following compound next.
Prompt: Name the reported Peptide Concentration-induced 50% ANTS/DPX leakage at pH 4.8, POPC Vesicle value associated with the compound CC(C)C[C@H](NC(=O)CN)C(=O)N[C@@H](CC(C)C)C(=O)N[C@@H](CCC(=O)O)C(=O)N[C@@H](CC(C)C)C(=O)N[C@@H](CC(C)C)C(=O)N[C@@H](Cc1c[nH]cn1)C(=O)N[C@@H](CC(C)C)C(=O)N[C@@H](CC(C)C)C(=O)N[C@@H](CC(C)C)C(=O)N[C@@H](CCC(=O)O)C(=O)N[C@@H](C)C(=O)N[C@@H](C)C(=O)NCC(=O)N[C@@H](Cc1c[nH]c2ccccc12)C(N)=O
Completion: 75
